Values of pKi reported for LF 263-C catalytic domain (anthrax lethal factor) (Bacillus anthracis) appear below.
Just so you know, pKi here is -log10 of the concentration in molar units; reply with that number alone.

Ask: Record request: pKi value, item `CCN(CCCC[C@@H](C[C@@H](OC)c1ccc(F)cc1)C(=O)NO)Cc1ccc(Cl)cn1`
Result: 8.35

Ask: Bench note: what pKi did `Cc1ccc([C@@H](CO)NCCCC[C@@H](Cc2cc(C)c(F)c(C)c2)C(=O)NO)nc1` show?
Result: 10.15

Ask: Sample `Cc1cc(C[C@H](CCCCN[C@@H](c2ccc(Cl)cn2)C(C)C)C(=O)NO)cc(F)c1F` — what was its pKi?
Result: 9.06

Ask: Fill blank: measured pKi of the molecule `CN(CCCC[C@@H](Cc1cc(Cl)c(F)c(Cl)c1)C(=O)NO)Cc1ccc(F)cn1` is ____.
Result: 8.80

###

For each record, write down the corresponding pKi.
Answer as the number alone; pKi is minus log10 of concentration in mol/L.

Ask: Fill in the recorded pKi for this compound, with LF 263-C catalytic domain (anthrax lethal factor) (Bacillus anthracis) as test system: `CC[C@@H](NCCCC[C@@H](Nc1cc(C)c(F)c(C)c1)C(=O)NO)c1ccc(F)cn1`
Sequence (P15917 296-809 limits assumed): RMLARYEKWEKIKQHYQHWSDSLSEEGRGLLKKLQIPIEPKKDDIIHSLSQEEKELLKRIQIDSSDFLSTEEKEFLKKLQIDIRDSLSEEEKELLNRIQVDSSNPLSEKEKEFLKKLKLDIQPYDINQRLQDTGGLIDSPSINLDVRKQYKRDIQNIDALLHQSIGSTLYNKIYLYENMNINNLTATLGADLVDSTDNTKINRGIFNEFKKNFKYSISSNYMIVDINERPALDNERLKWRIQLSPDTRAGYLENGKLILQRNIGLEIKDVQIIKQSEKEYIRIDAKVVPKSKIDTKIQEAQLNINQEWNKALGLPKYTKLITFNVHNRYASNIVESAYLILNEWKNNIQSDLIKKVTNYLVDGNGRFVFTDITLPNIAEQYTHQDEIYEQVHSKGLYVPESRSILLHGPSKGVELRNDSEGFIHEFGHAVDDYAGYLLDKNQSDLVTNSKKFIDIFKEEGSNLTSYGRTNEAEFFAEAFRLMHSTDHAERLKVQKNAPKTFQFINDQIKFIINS
Result: 9.24

Ask: Notebook: pull reported pKi for LF 263-C catalytic domain (anthrax lethal factor) (Bacillus anthracis), entry `CCN(CCCC[C@@H](Cc1cc(C)c(F)c(C)c1)C(=O)NO)[C@H](C)c1ccc(OC)cn1`
Result: 8.35

Ask: Form field: pKi recorded for `COc1ccc([C@@H](C)NCCCC[C@@H](Cc2cc(C)c(F)c(C)c2)C(=O)NO)nc1` with LF 263-C catalytic domain (anthrax lethal factor) (Bacillus anthracis) (enter value)
Result: 9.51

Ask: Form entry - test system: LF 263-C catalytic domain (anthrax lethal factor) (Bacillus anthracis); read-out: pKi; compound: `CO[C@H](C[C@H](CCCCN[C@@H](c1ccc(F)c(C)n1)C(C)C)C(=O)NO)c1ccc(F)cc1`
Result: 8.57

Ask: API: value(readout= pKi, system= LF 263-C catalytic domain (anthrax lethal factor) (Bacillus anthracis), query= `CO[C@H](C[C@H](CCCCN(C)Cc1ccc(Cl)cn1)C(=O)NO)c1ccc(F)cc1` )
Result: 8.52

Ask: Query for LF 263-C catalytic domain (anthrax lethal factor) (Bacillus anthracis): what pKi does the record show for `CO[C@H](C[C@H](CCCCN[C@@H](c1ncc(Cl)cc1Cl)C(C)C)C(=O)NO)c1ccc(F)cc1` ?
Result: 8.21

Ask: # returns recorded pKi (system: LF 263-C catalytic domain (anthrax lethal factor) (Bacillus anthracis)) for `CCc1cc(Cl)cnc1CN(C)CCCC[C@@H](C[C@@H](OC)c1ccc(F)cc1)C(=O)NO`
Result: 8.17

Ask: Provide the documented pKi with LF 263-C catalytic domain (anthrax lethal factor) (Bacillus anthracis) as the system for `CO[C@H](C[C@H](CCCCN(C)Cc1cccc(C)n1)C(=O)NO)c1ccc(F)cc1`
Result: 7.80

###

# Test System: LF 263-C catalytic domain (anthrax lethal factor) (Bacillus anthracis)
Observation Type: pKi
Would you please state pKi, meaning minus log10 of the concentration in mol/L, as a bare number?

Ask: Record request: pKi value, item `COc1ccc(CN(C)CCCC[C@@H](Cc2cc(C)c(F)c(C)c2)C(=O)NO)nc1`
Result: 8.85

Ask: GET /values?readout=pKi&item= `CO[C@H](C[C@H](CCCCN(CCO)Cc1ncc(F)cc1Cl)C(=O)NO)c1ccc(F)cc1`
Result: 7.27

Ask: Name the recorded pKi for `CO[C@H](C[C@H](CCCCN[C@H](C)c1ccc(Cl)cn1)C(=O)NO)c1ccc(F)cc1` .
Result: 8.80

Ask: Would you mind telling me what pKi value was observed for `Cc1cc(N[C@H](CCCCN[C@@H](c2ccc(F)cn2)C(C)C)C(=O)NO)cc(C)c1F` ?
Result: 9.70

Ask: Which pKi reading was recorded for the compound `Cc1cc(C[C@H](CCCCN[C@H](CO)c2ccc(F)cn2)C(=O)NO)cc(C)c1F` ?
Result: 10.10

Ask: Using the record for `Cc1cc(C[C@H](CCCCN[C@H](C)c2ccc(Cl)cn2)C(=O)NO)cc(C)c1F` , report its pKi.
Result: 10.10

Ask: Look up pKi for this compound: `CC(C)[C@@H](NCCCC[C@@H](Cc1cc(Cl)c(F)c(Cl)c1)C(=O)NO)c1ccc(F)cn1`
Result: 9.22

Ask: Given the entry `CO[C@H](C[C@H](CCCCN[C@@H](c1ccc(Cl)cn1)C(C)C)C(=O)NO)c1ccc(F)cc1` , report its measured pKi.
Result: 9.27

Ask: Reported pKi, compound `CC[C@@H](NCCCC[C@@H](Cc1cc(C)c(F)c(C)c1)C(=O)NO)c1ccc(F)cn1` : ____
Result: 10.10

Ask: Query: pKi; subject: `Cc1ccc([C@@H](C)NCCCC[C@@H](Cc2cc(C)c(F)c(C)c2)C(=O)NO)nc1`
Result: 10.10

Ask: Item under review: `CC(C)[C@@H](NCCCC[C@@H](Cc1cc(Cl)c(F)c(Cl)c1)C(=O)NO)c1ccc(Cl)cn1` . Reported pKi?
Result: 9.38

Ask: Looking for the measured pKi of `Cc1cc(C[C@H](CCCCN[C@H](C)c2ccc(C(F)(F)F)cn2)C(=O)NO)cc(C)c1F` , can you help?
Result: 8.89

Ask: Which pKi is listed for `Cc1cc(C[C@H](CCCCN[C@@H](c2ccc(Cl)cn2)C(C)C)C(=O)NO)cc(Cl)c1F` ?
Result: 9.59

Ask: Give its pKi value. Item: `CO[C@H](C[C@H](CCCCN[C@H](CO)c1ccc(F)cn1)C(=O)NO)c1ccc(F)cc1`
Result: 8.77

Ask: Fill in: pKi of `Cc1cc(N[C@H](CCCCN[C@@H](c2ccc(Cl)cn2)C(C)C)C(=O)NO)cc(C)c1F` is ___
Result: 9.35

Ask: Request the reported pKi associated with `CO[C@H](C[C@H](CCCCN[C@@H](c1ncc(F)cc1F)C(C)C)C(=O)NO)c1ccc(F)cc1`
Result: 8.68

FYI, the data here is from patent US11299461B2.
